Test: Inhibition of GST tagged human BCL-XL deltaC25 using biotin-DLRPEIRIAQELRIZIGDEFNETYTRR as substrate […] measured after 4 hrs by AlphaSCREEN assay
Form field: pIC50 (one value per entry).
The read-out pIC50 is expressed as -log10 of concentration in moles per litre.

Completed entries (count: 3):
Cc1ccc(CN(C(=O)N[C@@H](COCc2ccccc2)C(=O)O)C(=O)c2ccc(-c3ccccc3)cc2)cc1: 6.42
Cc1ccc(CN(C(=O)N[C@@H](CSCc2ccccc2)C(=O)O)C(=O)c2ccc(-c3ccccc3)cc2)cc1: 6.29
CN(C)CC[C@H](CSc1ccccc1)Nc1ccc(S(=O)(=O)NC(=O)c2ccc(N3CCN(Cc4ccccc4-c4ccc(Cl)cc4)CC3)cc2)cc1[N+](=O)[O-] [ABT 737]: 8.40

Here's the next entry for you.
Input line: Which pIC50 value belongs to Cc1ccc(CN(C(=O)N[C@@H](CS(=O)(=O)CC23CC4CC(CC(C4)C2)C3)C(=O)O)C(=O)c2ccc(-c3ccccc3)cc2)cc1 ?
Output line: 6.72

====

Test: Inhibition of GST tagged human BCL-XL deltaC25 using biotin-DLRPEIRIAQELRIZIGDEFNETYTRR as substrate […] measured after 4 hrs by AlphaSCREEN assay
reported metric: IC50 (µM)
Numeric answer only, unit µM assumed.

Cc1ccc(CN(C(=O)N[C@@H](CCCc2ccccc2)C(=O)O)C(=O)c2ccc(-c3ccccc3)cc2)cc1: 1.09

Input line: Which IC50 value belongs to Cc1ccc(CN(C(=O)N[C@@H](CS(=O)(=O)Cc2ccccc2)C(=O)O)C(=O)c2ccc(-c3ccccc3)cc2)cc1 ?
Output line: 0.59

Input line: Which IC50 value belongs to Cc1ccc(CN(C(=O)N[C@@H](CSCc2ccccc2)C(=O)O)C(=O)c2ccc3c(c2)CCN(Cc2ccccc2-c2ccc(Cl)cc2)C3)cc1 ?
Output line: 0.21

====

Test: Inhibition of GST tagged human/mouse chimeric MCL-1 using biotin-DLRPEIRIAQELRIZIGDEFNETYTRR as substrate incubated for 40 mins followed by substrate addition measured after 4 hrs by AlphaSCREEN assay
Form field: IC50 (one value per entry).
Numeric answer only, unit µM assumed.

CSC[C@H](NC(=O)N(Cc1ccc(C)cc1)C(=O)c1ccc(-c2ccccc2)cc1)C(=O)O: 44
CN(C)CC[C@H](CSc1ccccc1)Nc1ccc(S(=O)(=O)NC(=O)c2ccc(N3CCN(Cc4ccccc4-c4ccc(Cl)cc4)CC3)cc2)cc1[N+](=O)[O-]: 40
Cc1ccc(CN(C(=O)N[C@@H](COCc2ccccc2)C(=O)O)C(=O)c2ccc(-c3ccccc3)cc2)cc1: 11.8
Cc1ccc(CN(C(=O)N[C@@H](CS(=O)(=O)CC23CC4CC(CC(C4)C2)C3)C(=O)O)C(=O)c2ccc(-c3ccccc3)cc2)cc1: 6.1
Cc1ccc(CN(C(=O)N[C@@H](CSCc2ccccc2)C(=O)O)C(=O)c2ccc(-c3cccc(-c4ccccc4-c4ccc(Cl)cc4)c3)cc2)cc1: 1.5

Here's the next entry for you.
Input line: Which IC50 value belongs to Cc1ccc(CN(C(=O)N[C@@H](CS(=O)(=O)Cc2ccccc2)C(=O)O)C(=O)c2ccc(-c3ccccc3)cc2)cc1 ?
Output line: 11.6

====

Test: Inhibition of human BCL-W deltaC23 C29S/A128E mutant by surface plasmon resonance assay
Form field: IC50 (one value per entry).

Completed entries (count: 4):
Cc1ccc(CN(C(=O)N[C@@H](CS(=O)(=O)CC23CC4CC(CC(C4)C2)C3)C(=O)O)C(=O)c2ccc(-c3ccccc3)cc2)cc1: > 12.5 µM
Cc1ccc(CN(C(=O)N[C@@H](CS(=O)(=O)CC2CCCCC2)C(=O)O)C(=O)c2ccc(-c3ccccc3)cc2)cc1: > 12.5 µM
Cc1ccc(CN(C(=O)N[C@@H](CS(=O)(=O)Cc2ccccc2)C(=O)O)C(=O)c2ccc(-c3ccccc3)cc2)cc1: > 12.5 µM
CN(C)CC[C@H](CSc1ccccc1)Nc1ccc(S(=O)(=O)NC(=O)c2ccc(N3CCN(Cc4ccccc4-c4ccc(Cl)cc4)CC3)cc2)cc1[N+](=O)[O-]: 0.012 µM

Input line: Which IC50 value belongs to Cc1ccc(CN(C(=O)N[C@@H](CS(=O)(=O)CC2CCCCC2)C(=O)O)C(=O)c2ccc3c(c2)CCN(Cc2ccccc2-c2ccc(Cl)cc2)C3)cc1 ?
Output line: 6.8 µM
